Give measured soluble fraction (log2) for each item. Keep answers brief.
Experiment Summary: soluble fraction after stress (log2 fold change); higher = more stays soluble; pooled small domains, quantitative proteomics
Condition Label: stress: 50 degC
Numbers only.

• HMGAVVSPMPGVILDIKVKEGDSVSEGQTVIILEAMKMENEIVSEFTGTVSAIRVKKGDTVDTDAVLVEI = -0.393
• HMDSYSILGIEKESSMEDIEKAYIDKISKIKKEVKNEKNAAAFEAVLTKAYNDILSQKENISEEQELAE = 0.011
• HMGSATAPDLKGLTYEQAQTKAEDAGYNIEKGEDVYDNDVEKGKVASQDPEAGAEAKEGSVITVNISK = -0.0349
• HMETFGLSQRELQILSQLHKGQPLKEFAASLFITESTLKTHLSAIYRKMSVKNRVQAIEKAKQSGL = -1.24
• HMILKQTHIVQELTGPIRLQEYGVGIFQQISTKSALKKALKKNQITVDGVVGSTATFIKGGEIIIYHVTE = -2.75
• HMNSLGYSDFVVDVQNERVASVVIEGLIINGERRDGTKFRTVLPTIGDQRLMDDLINHNVKVLARE = 0.236

Hi, could you look up soluble fraction (log2) for each item in my list?
1. HMYPDNSGDIQQLAQNIFRQENVSVDRDGLALISSRLGSDHAATRSEIEKLALLAGPGGTLTFETISEVLG
2. HMSPSDLSAEAQKVYALLDGRELSFDTLVEESGFDTGSLLAILMRLEMKMLVEHGADQVYRRSG

[-0.144, -0.58]

Hi, could you look up soluble fraction (log2) for each item in my list?
1. HMADEIQIGLQKAIQSLPEKQKLVFSMRYYDEIPYDEMSKILDMSVGTLKTNYHYAKQKIEDFLQNH
2. HMLDSDARRRGLIEYLSLNGYATMRQLAGEFDVSINTIQRDITYLARYYPLETAYGRYGGGVYFEQNWQ
3. HMDTLRPLGRYQNVHLTKQELTALQSEFSDWSERIERLSSYMASTGRKYQNHAATIRLWAEKDK
4. HMQRIFIDNHDRILYYSNPAGYIAGKEAVVDTMFQTQELERFLQKQSLSIRWEDGVYDRLLLGQ
5. HMHDYTTIIGVIELRLNKISYDNVQKRYRIGRSGISLIMERYRDSGLSLDDLKQMPAEKVVNLIYPKD
6. HMPLTAASLQTYLRGVDYPASKQDLIAHARKSDAPEDAITVLEQYSEQTYRSAADVSAEFGS

1: -1.05; 2: -1.56; 3: 0.13; 4: 0.016; 5: -0.954; 6: 0.178

Hi, could you look up soluble fraction (log2) for each item in my list?
1. HMKQKAEVIFVSKTIMEALSKGVRLTPENLKSETELPIDDFYARLKELIDNGSVVESRENGESYLEAGN
2. HMSDGIPDLRNLNFLSPQEGDYLNESDRVFGVTINGDGQAYPLRIVNAHEMVNDTLGGEPISLM
3. HMEGYLYLSESQNELILKNLKTPLKYNLYNASGKLIKKGNIKNTLDISELPKGVYIFTSSDNSFSKKFLKT
4. HMNRGITVIVNNEEIKMKEKAQYVVVDIFDYIDFDLTVPKGSINITLNGENTPYTASIKDGDVIEVFW
5. HMIDEQDLKKYILISTSVEELTDYLGATDRMLYDYLYSLKHVGQYWQLNERFLLDLYKLPNLVIVDKEDLE
6. HMKSVFQPIYEDLLSRIQDGRLLPGMPLPSENALAVQYGTSRPTIRRAIGLLVEKSLVIRQPGIGSIVAS
7. HMETEAGIKAYLSSSMIKGIGPVTAQRIVERFGKRTLYVLDQMPEKLLDISGISEAKLEEILNGYRKS

0.0977
0.16
-0.0444
-0.266
-0.136
-1.17
-0.24
